- TARGET_OF_ASSAY: PAPD5 (Homo sapiens, UniProt Q8NDF8)
- Construct: made in house
- Sequence (Q8NDF8 68-698 isoform Q8NDF8-5 limits assumed): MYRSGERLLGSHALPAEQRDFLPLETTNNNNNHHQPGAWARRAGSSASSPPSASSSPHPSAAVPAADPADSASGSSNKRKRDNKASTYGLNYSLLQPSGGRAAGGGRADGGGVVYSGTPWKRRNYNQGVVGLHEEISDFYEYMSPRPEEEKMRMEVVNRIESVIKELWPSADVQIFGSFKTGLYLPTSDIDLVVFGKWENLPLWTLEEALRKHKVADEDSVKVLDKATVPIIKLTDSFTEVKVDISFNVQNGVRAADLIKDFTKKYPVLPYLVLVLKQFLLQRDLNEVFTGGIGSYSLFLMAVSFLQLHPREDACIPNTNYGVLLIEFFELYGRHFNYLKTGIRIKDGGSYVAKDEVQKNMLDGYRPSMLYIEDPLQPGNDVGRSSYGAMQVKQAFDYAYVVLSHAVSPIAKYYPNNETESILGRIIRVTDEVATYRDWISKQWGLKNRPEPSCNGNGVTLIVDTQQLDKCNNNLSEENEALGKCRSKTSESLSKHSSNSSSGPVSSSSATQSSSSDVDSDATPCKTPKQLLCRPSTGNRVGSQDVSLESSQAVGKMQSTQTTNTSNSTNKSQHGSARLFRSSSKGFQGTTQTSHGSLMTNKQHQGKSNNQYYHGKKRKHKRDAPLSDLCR
- TEST_DESCRIPTION: DSF binding assay (shift in temperature)
- CONDITION_NOTES: shift in temperature at 100 μM of the compound
Documented ΔTm at 100 µM across a set of compounds
Write down the numeric answer in °C and omit the unit.

COMPOUND: CCOC(=O)c1cnc2ccc(OC(F)(F)F)cc2c1Nc1scnc1C(=O)OCC [Compound 33A]
MEASURED_ENDPOINT: ΔTm at 100 µM
UNITS: °C
OBSERVED: 0.7

COMPOUND: O=C(O)c1cccn2c(=O)c3cnc4ccc(OC(F)(F)F)cc4c3nc12 [Compound 27A]
MEASURED_ENDPOINT: ΔTm at 100 µM
UNITS: °C
OBSERVED: 2.8

COMPOUND: COCCCOc1cc2ncc(C(=O)N(C)C)c(Nc3ccccc3C(=O)O)c2cc1Br [Compound 57A]
MEASURED_ENDPOINT: ΔTm at 100 µM
UNITS: °C
OBSERVED: 9.8

COMPOUND: NS(=O)(=O)c1cnc2ccc(OC(F)(F)F)cc2c1Nc1ccccc1C(=O)O [Compound 16A]
MEASURED_ENDPOINT: ΔTm at 100 µM
UNITS: °C
OBSERVED: 9.6

COMPOUND: COCCCOc1cc2ncc(C(=O)N3CCOCC3)c(Nc3ccccc3C(=O)O)c2cc1OC [Compound 53A]
MEASURED_ENDPOINT: ΔTm at 100 µM
UNITS: °C
OBSERVED: 5.2

COMPOUND: O=C(O)c1ccccc1Nc1c(S(=O)(=O)N2CCOCC2)cnc2ccc(Cl)cc12 [Compound 80A]
MEASURED_ENDPOINT: ΔTm at 100 µM
UNITS: °C
OBSERVED: 16.4

Now, please, on to the next compound.
Challenge: Find the measured ΔTm at 100 µM of O=C(O)c1ccccc1Nc1c(-c2ncco2)cnc2ccc(OC(F)(F)F)cc12 [Compound 17A] and report it.
Response given: 8.4

---

Listed next: entries and their corresponding ΔTm at 100 µM.
- TARGET_OF_ASSAY: PAPD5 (Homo sapiens, UniProt Q8NDF8)
- Construct: made in house
- TEST_DESCRIPTION: DSF binding assay (shift in temperature)
- CONDITION_NOTES: shift in temperature at 100 μM of the compound
- Protocol: Qualitative measure of RNA oligo-extension inhibition for the tested compounds, expressed as range from minimal activity (0) to that of compound 1 (+++), and results of a DSF binding assay (shown as shift in temperature at 100 μM of the compound) are shown in the Table 2 below.
Reply with the number, then its unit.

Example entries begin here.
MOLECULE: CCOC(=O)c1cnc2ccc(OC(F)(F)F)cc2c1Nc1ccccc1S(=O)(=O)NCC(F)(F)F [Compound 34A]
ΔTm at 100 µM: 0.3 °C
--
MOLECULE: CCOC(=O)c1cnc2ccc(OC(F)(F)F)cc2c1Nc1ccccc1C#N [Compound 25A]
ΔTm at 100 µM: 0.1 °C
--
MOLECULE: O=C(O)c1cccnc1Nc1c(C(=O)O)cnc2ccc(OC(F)(F)F)cc12 [Compound 28A]
ΔTm at 100 µM: 5.5 °C
--
MOLECULE: O=C(O)c1ccccc1Nc1c(S(=O)(=O)N2CCOCC2)cnc2ccc(Br)cc12 [Compound 70A]
ΔTm at 100 µM: 13.7 °C

Challenge: In one line, give reported ΔTm at 100 µM of the entry CCOC(=O)c1cnc2ccc(Br)cc2c1Nc1ccccc1C(=O)O [Compound 26A] .
Response given: 11.1 °C

Challenge: # return recorded ΔTm at 100 µM for entry O=C(O)c1c(O)cccc1Nc1c(-c2ncco2)cnc2ccc(Cl)cc12 [Compound 82A]
Response given: 13.5 °C

Challenge: Input CCOC(=O)c1cnc2ccc(OC(F)(F)F)cc2c1Nc1ccccc1C(=O)O [Compound 32A] , output reported ΔTm at 100 µM.
Response given: 7.9 °C

Challenge: Using known records, supply ΔTm at 100 µM for COCCCOc1cc2ncc(C#N)c(Nc3cccc(O)c3C(=O)O)c2cc1OC [Compound 55A]
Response given: 13.9 °C

---

- TARGET_OF_ASSAY: PAPD5 (Homo sapiens, UniProt Q8NDF8)
- Construct: made in house
- TEST_DESCRIPTION: RNA oligo-adenylation (oligo-extension) inhibition assay with recombinant PAPD5
- Assay type: biochemical
- Parameters: key: minimal activity (0); range from minimal activity (0) to that of compound 1 (+++); range from minimal activity (0) to that of compound 1 (+++); that of compound 1 (+++)
- CONDITION_NOTES: qualitative measure of RNA oligo-extension inhibition, relative to compound 1
MEASURED_ENDPOINT: Inhibition of PAPD5 RNA oligo adenylation
In your answer, state the number alone without any accompanying words.

Recorded results for 4 molecules are shown here.
MOLECULE: COc1cccc(Nc2c(S(=O)(=O)N3CCOCC3)cnc3ccc(Br)cc23)c1C(=O)O [Compound 78A-INT]
OBSERVED: 0
//
MOLECULE: CCOC(=O)c1cnc2ccc(OC(F)(F)F)cc2c1Nc1ccccc1S(=O)(=O)NCC(F)(F)F [Compound 34A]
OBSERVED: 0
//
MOLECULE: O=c1c2cnc3ccc(OC(F)(F)F)cc3c2[nH]c2ccnn12 [Compound 30A]
OBSERVED: 0
//
MOLECULE: CCOC(=O)c1cnc2ccc(OC3CCNCC3)cc2c1Nc1ccccc1C(=O)O [Compound 19A]
OBSERVED: 0

Challenge: Give the reported Inhibition of PAPD5 RNA oligo adenylation for this molecule. CCOC(=O)c1ncn2c1[nH]c(=O)c1cnc3ccc(OC(F)(F)F)cc3c12 [Compound 31A]
Response given: 0

Challenge: Give a short answer stating reported Inhibition of PAPD5 RNA oligo adenylation for O=C(O)c1cccn2c(=O)c3cnc4ccc(OC(F)(F)F)cc4c3nc12 [Compound 27A] .
Response given: 0

Challenge: Tell me its Inhibition of PAPD5 RNA oligo adenylation given COCCCOc1cc2ncc(C#N)c(-n3ccc(=O)c(C(=O)O)c3)c2cc1OC [Compound 56A] as the entry.
Response given: 0

---

- TARGET_OF_ASSAY: PAPD5 (Homo sapiens)
- Construct: made in house
- TEST_DESCRIPTION: RNA oligo-adenylation (oligo-extension) inhibition assay with recombinant PAPD5
- Assay type: biochemical
- Set-up: key: minimal activity (0); range from minimal activity (0) to that of compound 1 (+++); range from minimal activity (0) to that of compound 1 (+++); that of compound 1 (+++)
- CONDITION_NOTES: qualitative measure of RNA oligo-extension inhibition, relative to compound 1
MEASURED_ENDPOINT: Inhibition of PAPD5 RNA oligo adenylation

COMPOUND: O=C(O)c1c(O)cccc1Nc1c(S(=O)(=O)N2CCOCC2)cnc2ccc(Br)cc12 [Compound 78A]
OBSERVED: +++

COMPOUND: CCOC(=O)c1cnc2ccc(OC(F)(F)F)cc2c1Nc1scnc1C(=O)OCC [Compound 33A]
OBSERVED: 0

COMPOUND: CCOC(=O)c1cnc2ccc(OC(F)(F)F)cc2c1Nc1ccccc1C(=O)O [Compound 32A]
OBSERVED: +++

COMPOUND: NS(=O)(=O)c1cnc2ccc(OC(F)(F)F)cc2c1Nc1ccccc1C(=O)O [Compound 16A]
OBSERVED: +++

COMPOUND: CCOC(=O)c1cnc2ccc(-n3ccc4cc(O)ccc43)cc2c1Nc1ccccc1C(=O)O [Compound 29A]
OBSERVED: +++

COMPOUND: CCOC(=O)c1cnc2ccc(C(=O)N3CCNCC3)cc2c1Nc1ccccc1C(=O)O [Compound 18A]
OBSERVED: 0

COMPOUND: O=C(O)c1ccccc1Nc1c(C(=O)N2CCNCC2)cnc2ccc(OC(F)(F)F)cc12 [Compound 14A]
OBSERVED: ++

COMPOUND: CCOC(=O)c1cnc2ccc(OC(F)(F)F)cc2c1Nc1scnc1C(=O)O
OBSERVED: 0

COMPOUND: O=C(O)c1cccnc1Nc1c(C(=O)O)cnc2ccc(OC(F)(F)F)cc12 [Compound 28A]
OBSERVED: +

COMPOUND: O=C(O)c1ccccc1Nc1c(S(=O)(=O)N2CCOCC2)cnc2ccc(Cl)cc12 [Compound 80A]
OBSERVED: +++

Challenge: Report Inhibition of PAPD5 RNA oligo adenylation for COCCCOc1cc2ncc(C#N)c(Nc3cccc(O)c3C(=O)O)c2cc1OC [Compound 55A]
Response given: +++

Challenge: Specify measured Inhibition of PAPD5 RNA oligo adenylation for COCCCOc1cc2ncc(C#N)c(Nc3ccccc3C(=O)O)c2cc1OC [Compound 51A] .
Response given: +

Challenge: Could you please provide reported Inhibition of PAPD5 RNA oligo adenylation for CCOC(=O)c1cnc2ccc(Br)cc2c1Nc1ccccc1C(=O)O [Compound 26A] ? Thanks!
Response given: +++

Challenge: // fetch Inhibition of PAPD5 RNA oligo adenylation given entry NS(=O)(=O)c1cnc2ccc(Cl)cc2c1Nc1ccccc1C(=O)O [Compound 63A]
Response given: +++

Challenge: Give recorded Inhibition of PAPD5 RNA oligo adenylation. CCOC(=O)c1cnc2ccc(OC(F)(F)F)cc2c1Nc1ncccc1C(=O)O
Response given: 0

Challenge: // Input: O=C(O)c1ccccc1Nc1c(S(=O)(=O)N2CCOCC2)cnc2ccc(Br)cc12 [Compound 70A] . Output its Inhibition of PAPD5 RNA oligo adenylation only.
Response given: +++

Challenge: Please list Inhibition of PAPD5 RNA oligo adenylation recorded for the compound COCCCOc1cc2ncc(C(=O)N(C)C)c(Nc3ccccc3C(=O)O)c2cc1Br [Compound 57A]
Response given: +++

Challenge: State its Inhibition of PAPD5 RNA oligo adenylation: CCOC(=O)c1cnc2ccc(OC(F)(F)F)cc2c1Nc1ccccc1C#N [Compound 25A]
Response given: 0
